Tested on: MDA-MB-468 breast
METHOD_NOTES: NCI tumour cell line growth inhibition, 48 h
ASSAY_METRIC: TGI (µM)
Output spec: scalar in µM, unitless text.

Below are worked cases with known answers.
{"columns": ["COMPOUND_STRING", "ASSAY_METRIC", "OBSERVED_RESULT"],
 "data": [
  ["COc1cc2c3c(n(CCCN4CCC[C@H]4C(N)=O)c(=O)c2cc1OC)-c1cc2c(cc1C3=O)OCO2", "TGI", 0.316],
  ["O=C(O)c1ccc(-n2c(=O)n(-c3cccc(C(F)(F)F)c3)c(=O)c3cc(-c4ccc(F)cc4F)ccc32)cc1", "TGI", 5.94]
]}

// sample CC(C)S(=O)(=O)c1ccccc1Nc1nc(Nc2cccc(NC(=O)CN)c2)ncc1Cl , its TGI was 1.86

// sample Cc1cc(N/N=C/c2nc(-c3ccc(Br)cc3)oc2C)c2cc(Br)ccc2n1 , its TGI was 4.85

// sample CC(C)N=c1cc2n(-c3ccc(Cl)cc3)c3ccccc3nc-2cc1Nc1ccc(Cl)cc1 , its TGI was 1.67

// sample Cc1cc[c-]cc1.Fc1c[c-]c(-c2ccccn2)c(F)c1.[Pt+2].c1ccc(P(C[PH+](c2ccccc2)c2ccccc2)c2ccccc2)cc1 , its TGI was 5.55

// sample COc1cc(OC)c(S(N)(=O)=O)cc1C(=O)/C=C/c1ccc(Cl)cc1 , its TGI was 3.08

// sample COc1cc2ncn(-c3cc(OCCc4ccccc4)c(C(N)=O)s3)c2cc1OC , its TGI was 24.2
